Overview of recorded hemolysis at 1 h, 150 µM for various molecules
assay.procedure: in vitro
Type: cell-based, rat (Sprague–Dawley)
study.conditions: Sprague-Dawley, rat
Square brackets hold non-standard residues; d marks the D form. Peptide text beside a SMILES is read from it. N(1-naphthylmethyl)Gly = O=C(O)CNCc1cccc2ccccc12; Nphe = O=C(O)CNCc1ccccc1; NBuGly = CCCCNCC(=O)O

>  <molecule>
CC(C)C[C@H](NC(=O)[C@H](CCCCN)NC(=O)[C@H](Cc1cccc2ccccc12)NC(=O)[C@H](Cc1ccccc1)NC(=O)[C@@H](N)Cc1cccc2ccccc12)C(=O)N[C@@H](CCCCN)C(=O)N[C@@H](CCCCN)C(N)=O [Compound 16] (HELM PEPTIDE1{[N[C@@H](Cc1cccc2ccccc12)C(=O)[*:2]].F.[O=C([C@H](Cc1cccc2ccccc12)N[*:1])[*:2]].K.L.K.K.[am]}$$$$V2.0)

>  <unit.info>
%

>  <hemolysis at 1 h, 150 µM>
11

$$$$
>  <molecule>
CCCCN(CC(=O)N[C@@H](CCCCN)C(=O)N[C@@H](CCCCN)C(=O)N[C@@H](CCCCN)C(N)=O)C(=O)CN(Cc1cccc2ccccc12)C(=O)CN(Cc1ccccc1)C(=O)CNCc1cccc2ccccc12 [Compound 2] (H-[N(1-naphthylmethyl)Gly][Nphe][N(1-naphthylmethyl)Gly][NBuGly]KKK-NH2)

>  <unit.info>
%

>  <hemolysis at 1 h, 150 µM>
100

$$$$
>  <molecule>
CC(C)C[C@H](NC(=O)[C@H](CCCCN)NC(=O)[C@@H](N)CCCCN)C(=O)N[C@@H](CCCCN)C(=O)N[C@@H](Cc1cccc2ccccc12)C(=O)N[C@@H](Cc1ccccc1)C(=O)N[C@@H](Cc1cccc2ccccc12)C(N)=O [Compound 6] (HELM PEPTIDE1{K.K.L.K.[O=C([C@H](Cc1cccc2ccccc12)N[*:1])[*:2]].F.[O=C([C@H](Cc1cccc2ccccc12)N[*:1])[*:2]].[am]}$$$$V2.0; N-terminus assumed)

>  <unit.info>
%

>  <hemolysis at 1 h, 150 µM>
18.2

$$$$

----------
assay.procedure: in vitro
Type: cell-based, bovine
study.conditions: bovine
Peptide text beside a SMILES is read from it.

>  <compound>
CC(C)C[C@H](NC(=O)[C@H](Cc1cccc2ccccc12)NC(=O)[C@H](Cc1ccccc1)NC(=O)[C@@H](N)Cc1cccc2ccccc12)C(=O)N[C@@H](CCCCN)C(=O)N[C@@H](CCCCN)C(=O)N[C@@H](CCCCN)C(N)=O [Compound 5] (HELM PEPTIDE1{[N[C@@H](Cc1cccc2ccccc12)C(=O)[*:2]].F.[O=C([C@H](Cc1cccc2ccccc12)N[*:1])[*:2]].L.K.K.K.[am]}$$$$V2.0)

>  <unit.info>
%

>  <sign.qualifier>
<

>  <hemolysis at 1 h, 150 µM>
8

$$$$
>  <compound>
CC(C)C[C@H](NC(=O)[C@H](CCCCN)NC(=O)[C@H](CCCCN)NC(=O)[C@@H](N)CCCCN)C(=O)N[C@@H](Cc1cccc2ccccc12)C(=O)N[C@@H](Cc1ccccc1)C(=O)N[C@@H](Cc1cccc2ccccc12)C(N)=O [Compound 7, Lys-Lys-Lys-Leu-(1-Nal)Ala-Phe(1-Nal)Ala] (HELM PEPTIDE1{K.K.K.L.[O=C([C@H](Cc1cccc2ccccc12)N[*:1])[*:2]].F.[O=C([C@H](Cc1cccc2ccccc12)N[*:1])[*:2]].[am]}$$$$V2.0)

>  <unit.info>
%

>  <sign.qualifier>
=

>  <hemolysis at 1 h, 150 µM>
16

$$$$
>  <compound>
CC(C)C[C@H](NC(=O)[C@H](CCCCN)NC(=O)[C@@H](N)CCCCN)C(=O)N[C@@H](CCCCN)C(=O)N[C@@H](Cc1cccc2ccccc12)C(=O)N[C@@H](Cc1ccccc1)C(=O)N[C@@H](Cc1cccc2ccccc12)C(N)=O [Compound 6] (HELM PEPTIDE1{K.K.L.K.[O=C([C@H](Cc1cccc2ccccc12)N[*:1])[*:2]].F.[O=C([C@H](Cc1cccc2ccccc12)N[*:1])[*:2]].[am]}$$$$V2.0; N-terminus assumed)

>  <unit.info>
%

>  <sign.qualifier>
=

>  <hemolysis at 1 h, 150 µM>
39.9

$$$$
